target.or.test.system: Hypoxia-inducible factor 1-alpha (Homo sapiens) (UniProt Q16665)
Sequence (Q16665 whole entry, looked up): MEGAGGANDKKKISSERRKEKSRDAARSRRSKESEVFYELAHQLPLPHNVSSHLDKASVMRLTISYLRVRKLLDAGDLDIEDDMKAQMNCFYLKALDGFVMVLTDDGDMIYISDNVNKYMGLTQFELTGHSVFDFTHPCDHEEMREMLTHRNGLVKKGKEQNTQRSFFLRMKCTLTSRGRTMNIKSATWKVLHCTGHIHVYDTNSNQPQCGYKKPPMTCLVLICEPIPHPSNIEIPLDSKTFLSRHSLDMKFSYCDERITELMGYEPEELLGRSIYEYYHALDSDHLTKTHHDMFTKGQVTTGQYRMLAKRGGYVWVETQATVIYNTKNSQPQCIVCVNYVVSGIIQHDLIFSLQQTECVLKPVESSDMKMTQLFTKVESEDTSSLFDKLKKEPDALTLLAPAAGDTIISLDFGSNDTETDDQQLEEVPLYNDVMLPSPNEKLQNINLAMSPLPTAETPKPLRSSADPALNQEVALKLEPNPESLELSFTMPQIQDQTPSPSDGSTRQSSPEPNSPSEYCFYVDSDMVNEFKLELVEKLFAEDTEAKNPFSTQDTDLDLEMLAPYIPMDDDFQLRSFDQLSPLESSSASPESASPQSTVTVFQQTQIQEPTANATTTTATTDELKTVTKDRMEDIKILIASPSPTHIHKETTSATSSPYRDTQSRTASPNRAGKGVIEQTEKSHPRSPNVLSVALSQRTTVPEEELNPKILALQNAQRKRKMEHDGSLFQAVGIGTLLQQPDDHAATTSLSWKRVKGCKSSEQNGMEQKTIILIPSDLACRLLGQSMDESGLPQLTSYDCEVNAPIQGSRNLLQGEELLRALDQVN
experiment.notes: HIF1A nuclear translocation activators in U2OS – imaging, U2OS GFP-HIF1alpha, high content, dry powder, set 2, orthogonal assay for HIF activator project, dose response (AID 493225)
condition.details: U2OS GFP-HIF1alpha nuclear intensity imaging
Activity calls are given as the source filed them.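 How the source made its calls: active means fitted curve reaching 40% activation, where positive control equals 100, at or below the top valid dose; inconclusive means flat curve between 30 and 70% activation, or a poor fit; inactive means the rest, including activity in the opposite direction.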
Answer with one of the outcomes 1 for active, -1 for inactive

| compound | answer.label |
| --- | --- |
| Oc1ccc(CNC2CCc3ccccc32)c2cccnc12 (stereo unspecified) | 1 |

Qu. For this compound, state the assay outcome: Cc1ccc(Nc2nc(-c3ccccn3)nnc2-c2ccccc2)cn1
Ans. 1

Qu. For this compound, state the assay outcome: O=C(NCC1CC1)c1cc(-c2ccccc2)on1
Ans. 1

Qu. For this compound, state the assay outcome: c1ccc(-c2nnc(-c3ccccn3)nc2N2CCC(C3CCCCC3)C2)cc1 (stereo unspecified)
Ans. 1

Qu. For this compound, state the assay outcome: O=C(NC1Cc2ccccc2C1)c1cc(-c2ccccc2)on1
Ans. -1

Qu. For this compound, state the assay outcome: COc1cccc(CNc2nc(-c3ccccn3)nnc2-c2ccccc2)c1
Ans. 1

----------
target.or.test.system: Hypoxia-inducible factor 1-alpha (Homo sapiens)
experiment.notes: HIF1A nuclear translocation activators in U2OS – imaging, U2OS GFP-HIF1alpha, high content, dry powder, set 2, orthogonal assay for HIF activator project, dose response (AID 493225)
condition.details: U2OS GFP-HIF1alpha nuclear intensity imaging
The source made the active and inactive calls.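 How the source made its calls: active means fitted curve reaching 40% activation, where positive control equals 100, at or below the top valid dose; inconclusive means flat curve between 30 and 70% activation, or a poor fit; inactive means the rest, including activity in the opposite direction.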
test.readout: AC40

| molecule | experimental.value |
| --- | --- |
| c1ccc(-c2nnc(-c3ccccn3)nc2NCC2CC2)cc1 | 2.07 µM |
| Cc1ccc(CNc2nc(-c3ccccn3)nnc2-c2ccccc2)cc1 | 0.727 µM |
| O=C(Nc1nc2ccccc2s1)c1cc(-c2ccccc2)on1 | 34.9 µM |
| c1ccc(-c2nnc(-c3ccccn3)nc2NCc2cccnc2)cc1 | 4.19 µM |

Qu. Fill in AC40 for record c1ccc(CNc2nc(-c3ccccn3)nnc2-c2ccccc2)cc1
Ans. 1.93 µM

Qu. Fill in AC40 for record c1ccc(-c2nnc(-c3ccccn3)nc2NCCCN2CCOCC2)cc1
Ans. 7.52 µM

Qu. Fill in AC40 for record CC(C)(C)c1ccc(CNc2nc(-c3ccccn3)nnc2-c2ccccc2)cc1
Ans. 0.249 µM

Qu. Fill in AC40 for record Oc1ccc(CNC2Cc3ccccc3C2)c2cccnc12
Ans. 5.59 µM

Qu. Fill in AC40 for record O=C(NC1CCc2ccccc2C1)c1cc(-c2ccccc2)on1 (configuration not stated)
Ans. > 38 µM (inactive)

Qu. Fill in AC40 for record c1ccc(-c2nnc(-c3ccccn3)nc2Nc2nc3ccccc3s2)cc1
Ans. 0.491 µM

Qu. Fill in AC40 for record c1ccc(-c2nnc(-c3ccccn3)nc2NCCc2ccccn2)cc1
Ans. 6.24 µM

----------
target.or.test.system: Hypoxia-inducible factor 1-alpha (Homo sapiens) (UniProt Q16665)
experiment.notes: HIF1A nuclear translocation activators in U2OS – imaging, U2OS GFP-HIF1alpha, high content, dry powder, set 2, orthogonal assay for HIF activator project, dose response (AID 493225)
condition.details: U2OS GFP-HIF1alpha nuclear intensity imaging; at 38 µM (top of the series)
Active and inactive are the calls of the source.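 Rule for the calls: active = fitted curve reaching 40% activation, where positive control equals 100, at or below the top valid dose; inconclusive = flat curve between 30 and 70% activation, or a poor fit; inactive = the rest, including activity in the opposite direction.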
test.readout: activation

| compound.smiles | test.readout | experimental.value |
| --- | --- | --- |
| CN(C)CCNC(=O)c1cc(-c2ccccc2)on1 | activation | 9.39% (inactive) |

Qu. Please report the measured activation for O=C(c1cc(-c2ccccc2)on1)N1CCc2cccnc21 tested on Hypoxia-inducible factor 1-alpha (Homo sapiens) (UniProt Q16665).
Ans. 3.77% (inactive)

Qu. Please report the measured activation for O=C(Nc1nc(-c2ccccc2)cs1)c1cc(-c2ccccc2)on1 tested on Hypoxia-inducible factor 1-alpha (Homo sapiens) (UniProt Q16665).
Ans. 3.11% (inactive)

----------
target.or.test.system: Hypoxia-inducible factor 1-alpha (Homo sapiens)
experiment.notes: HIF1A nuclear translocation activators in U2OS – imaging, U2OS GFP-HIF1alpha, high content, dry powder, set 2, orthogonal assay for HIF activator project, dose response (AID 493225);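 active = fitted curve reaching 40% activation, where positive control equals 100, at or below the top valid dose; inconclusive = flat curve between 30 and 70% activation, or a poor fit; inactive = the rest, including activity in the opposite direction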
condition.details: U2OS GFP-HIF1alpha nuclear intensity imaging
Answer with one of the outcomes active, inactive

The examples below pair each entry with its known result.
| molecule | answer.label |
| --- | --- |
| O=C(NCCCO)c1cc(-c2ccccc2)on1 | active |
| Oc1ccc(CN2CCC3CCCCC3C2)c2cccnc12 (stereo unspecified) | active |
| c1ccc(-c2nnc(-c3ccccn3)nc2NCc2ccccn2)cc1 | active |
| Oc1ccc(CN2CCC(Cc3ccccc3)CC2)c2cccnc12 | active |

Now for another entry.
Qu. For this molecule, state the assay outcome: COc1ccc(CNc2nc(-c3ccccn3)nnc2-c2ccccc2)cc1
Ans. active

----------
target.or.test.system: Hypoxia-inducible factor 1-alpha (Homo sapiens)
experiment.notes: HIF1A nuclear translocation activators in U2OS – imaging, U2OS GFP-HIF1alpha, high content, dry powder, set 2, orthogonal assay for HIF activator project, dose response (AID 493225)
condition.details: U2OS GFP-HIF1alpha nuclear intensity imaging
The source made the active and inactive calls.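 The calls were made as follows: active = fitted curve reaching 40% activation, where positive control equals 100, at or below the top valid dose; inconclusive = flat curve between 30 and 70% activation, or a poor fit; inactive = the rest, including activity in the opposite direction.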
Answer with one of the outcomes true = active, false = inactive

The examples below pair each entry with its known result.
| compound.smiles | answer.label |
| --- | --- |
| CC(C)(C)CCNC(=O)c1cc(-c2ccccc2)on1 | false |
| c1ccc(CCNc2nc(-c3ccccn3)nnc2-c2ccccc2)cc1 | true |
| CN(C)c1nc(-c2ccccn2)nnc1-c1ccccc1 | true |

Qu. For this molecule, state the assay outcome: Clc1cccc(CNc2nc(-c3ccccn3)nnc2-c2ccccc2)c1
Ans. true

Qu. For this molecule, state the assay outcome: c1ccc(-c2cccc(CNc3nc(-c4ccccn4)nnc3-c3ccccc3)c2)cc1
Ans. true

Qu. For this molecule, state the assay outcome: O=C(NCCCN1CCOCC1)c1cc(-c2ccccc2)on1
Ans. true
